The next entries give measured pIC50 for UniProt:Q05209.
Sequence (Q05209 28-293, species assumed): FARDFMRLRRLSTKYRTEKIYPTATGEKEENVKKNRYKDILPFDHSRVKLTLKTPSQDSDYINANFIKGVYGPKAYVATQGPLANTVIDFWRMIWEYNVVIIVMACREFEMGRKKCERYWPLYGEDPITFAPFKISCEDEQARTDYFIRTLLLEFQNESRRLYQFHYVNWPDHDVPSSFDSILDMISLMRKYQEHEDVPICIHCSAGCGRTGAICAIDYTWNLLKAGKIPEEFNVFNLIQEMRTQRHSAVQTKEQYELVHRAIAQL
pIC50: −log10 of the molar value.

{"COMPOUND_SMILES": "O=C(O)C(=O)Nc1ccc(C#Cc2ccc(C(F)(F)F)cc2Cl)cc1", "pIC50": "< 4.52"}

Inquiry: Lab note: record pIC50 of "O=C(O)C(=O)Nc1ccc(C#Cc2ccc(C(F)(F)F)cc2)cc1" tested on UniProt:Q05209.
Reply text: < 4.52

Inquiry: Lab note: record pIC50 of "CN(C)c1cc(O)c(C(=O)O)cc1C#Cc1cccc(NC(=O)C(=O)O)c1" tested on UniProt:Q05209.
Reply text: < 4.30

* * *

EXPERIMENTAL_TARGET: UniProtKB Q16828
Sequence (Q16828 206-349, species assumed): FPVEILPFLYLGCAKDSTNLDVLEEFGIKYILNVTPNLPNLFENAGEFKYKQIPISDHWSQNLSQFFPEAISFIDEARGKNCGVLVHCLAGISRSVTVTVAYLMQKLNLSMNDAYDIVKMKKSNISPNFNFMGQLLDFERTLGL
REPORTED_ENDPOINT: IC50

Inquiry: Input "O=C(O)C(=O)Nc1ccc(C#Cc2ccc(C(F)(F)F)cc2)cc1" , output reported IC50.
Reply text: > 30 µM

* * *

Known fold less potency compared to corresponding alkyne analogs 4 and 4k of a selection of molecules
EXPERIMENTAL_TARGET: mPTPB (Mycobacterium tuberculosis (strain ATCC 25618 / H37Rv), UniProt I6WXK4)
Sequence (I6WXK4 whole entry, looked up): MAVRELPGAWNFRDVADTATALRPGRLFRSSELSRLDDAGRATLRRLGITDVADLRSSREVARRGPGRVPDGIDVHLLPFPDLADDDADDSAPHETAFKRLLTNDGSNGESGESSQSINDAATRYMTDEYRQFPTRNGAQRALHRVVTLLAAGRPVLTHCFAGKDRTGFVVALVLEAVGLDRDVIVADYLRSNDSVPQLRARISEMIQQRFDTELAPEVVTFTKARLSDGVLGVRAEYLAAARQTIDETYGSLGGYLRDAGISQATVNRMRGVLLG
Assay type: biochemical
Report only the number, with the unit fold understood.

{"COMPOUND_SMILES": "O=C(O)C(=O)Nc1ccc(CCc2ccccc2)cc1", "U": "fold", "OBSERVED_MEASUREMENT": 5}
{"COMPOUND_SMILES": "O=C(O)C(=O)Nc1ccc(/C=C\\c2ccccc2)cc1", "U": "fold", "OBSERVED_MEASUREMENT": 3}
{"COMPOUND_SMILES": "O=C(O)C(=O)Nc1ccc(CCc2ccc(C(F)(F)F)cc2)cc1", "U": "fold", "OBSERVED_MEASUREMENT": 13}

Inquiry: Lab note: record fold less potency compared to corresponding alkyne analogs 4 and 4k of "O=C(O)C(=O)Nc1ccc(/C=C\c2ccc(C(F)(F)F)cc2)cc1" tested on mPTPB (Mycobacterium tuberculosis (strain ATCC 25618 / H37Rv), UniProt I6WXK4).
Reply text: 45

* * *

EXPERIMENTAL_TARGET: MKP5 (Homo sapiens (Human), UniProt Q9Y6W6)
Sequence (Q9Y6W6 321-464, species assumed): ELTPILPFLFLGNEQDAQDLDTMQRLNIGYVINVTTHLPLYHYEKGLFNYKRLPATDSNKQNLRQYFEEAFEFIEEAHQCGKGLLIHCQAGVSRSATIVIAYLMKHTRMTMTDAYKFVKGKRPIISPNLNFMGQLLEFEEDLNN
pIC50: −log10 of the molar value.
REPORTED_ENDPOINT: pIC50

{"COMPOUND": "O=C(O)C(=O)Nc1ccc(C#Cc2ccc(C(F)(F)F)cc2)cc1 [Compound 4k]", "OBSERVED_MEASUREMENT": "< 4.52"}
{"COMPOUND": "O=C(O)C(=O)Nc1ccc(C#Cc2ccc(C(F)(F)F)cc2Cl)cc1 [Compound 4t]", "OBSERVED_MEASUREMENT": "< 4.52"}

Could you now consider this next compound?
Inquiry: Lab note: record pIC50 of CN(C)c1cc(O)c(C(=O)O)cc1C#Cc1cccc(NC(=O)C(=O)O)c1 [Compound 4g] tested on MKP5 (Homo sapiens (Human), UniProt Q9Y6W6).
Reply text: < 4.30

* * *

ASSAY_EXPLANATION: Mouse liver microsomal stability
Format: in vitro ADME
RUN_CONDITIONS: Mouse, after 60 min at 37° C.
Method: A sufficient oral dosage must survive first-pass clearance through the liver before reaching its biological target. The majority of drugs/xenobiotics undergo phase I metabolism, mediated by the cytochrome P450 (CYP450) family of heme-thiolate proteins predominantly in the liver. […] To this end, compounds 4h, 4k, 4t, 4u, and 4v were allowed to react with mouse liver microsomes and the fraction of remaining parent compound over time was determined. […]
The label label 1 is reserved for Microsome Stability, % remaining strictly under 40%; label 0 covers values equal to or above it.

{"COMPOUND_SMILES": "O=C(O)C(=O)Nc1ccc(C#Cc2ccc(C(F)(F)F)cc2Cl)cc1", "CLASS_LABEL": "label 0"}
{"COMPOUND_SMILES": "CC(C)(C)c1ccc(C#Cc2ccc(NC(=O)C(=O)O)cc2)cc1", "CLASS_LABEL": "label 1"}
{"COMPOUND_SMILES": "O=C(O)C(=O)Nc1ccc(C#Cc2ccc(C(F)(F)F)cc2Br)cc1", "CLASS_LABEL": "label 0"}
{"COMPOUND_SMILES": "O=C(O)C(=O)Nc1ccc(C#Cc2ccc(C(F)(F)F)cc2F)cc1", "CLASS_LABEL": "label 0"}

Inquiry: Please let me know if "O=C(O)C(=O)Nc1ccc(C#Cc2ccc(C(F)(F)F)cc2)cc1" shows Microsome Stability, % remaining below 40%.
Reply text: label 1

* * *

EXPERIMENTAL_TARGET: DEP-1 (Homo sapiens (Human))
Sequence (Q12913 1041-1298, species assumed): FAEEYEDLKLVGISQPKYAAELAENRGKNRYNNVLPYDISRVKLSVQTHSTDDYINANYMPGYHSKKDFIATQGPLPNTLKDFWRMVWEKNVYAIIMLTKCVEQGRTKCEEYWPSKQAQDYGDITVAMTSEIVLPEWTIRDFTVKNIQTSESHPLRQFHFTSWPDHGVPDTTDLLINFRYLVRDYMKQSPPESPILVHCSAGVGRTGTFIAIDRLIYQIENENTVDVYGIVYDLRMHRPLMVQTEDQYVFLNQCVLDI
REPORTED_ENDPOINT: IC50

Inquiry: Lab note: record IC50 of O=C(O)C(=O)Nc1ccc(C#Cc2ccc(C(F)(F)F)cc2)cc1 [Compound 4k] tested on DEP-1 (Homo sapiens (Human)).
Reply text: > 30 µM

* * *

EXPERIMENTAL_TARGET: mPTPB (Mycobacterium tuberculosis (strain ATCC 25618 / H37Rv), UniProt I6WXK4)
Format: biochemical
RUN_CONDITIONS: pNPP assay, pH 7.0, 3.0 mM pNPP
REPORTED_ENDPOINT: pIC50
In simple prose, pIC50 is minus the logarithm base ten of a concentration in moles per litre.

Inquiry: Input CN(C)c1cc(O)c(C(=O)O)cc1C#Cc1ccc(NC(=O)C(=O)O)cc1 [Compound 4f] , output reported pIC50.
Reply text: 7.05

Inquiry: Input COC(=O)c1cc(C#Cc2ccc(NC(=O)C(=O)O)cc2)ccc1O [Compound 4b] , output reported pIC50.
Reply text: 7.60

Inquiry: Input COC(=O)c1ccc(C#Cc2ccc(NC(=O)C(=O)O)cc2)cc1 [Compound 4a] , output reported pIC50.
Reply text: 7.64

Inquiry: Input COC(=O)c1cc(C#Cc2ccc(NC(=O)C(=O)O)cc2)c(N(C)C)cc1O [Compound 4d] , output reported pIC50.
Reply text: 7.52

Inquiry: Input CC(C)(C)c1ccc(C#Cc2ccc(NC(=O)C(=O)O)cc2)cc1 [Compound 4h] , output reported pIC50.
Reply text: 7.59

* * *

Known pIC50 of a selection of compounds
EXPERIMENTAL_TARGET: SHP2 (Homo sapiens (Human))
Sequence (Q06124 247-517): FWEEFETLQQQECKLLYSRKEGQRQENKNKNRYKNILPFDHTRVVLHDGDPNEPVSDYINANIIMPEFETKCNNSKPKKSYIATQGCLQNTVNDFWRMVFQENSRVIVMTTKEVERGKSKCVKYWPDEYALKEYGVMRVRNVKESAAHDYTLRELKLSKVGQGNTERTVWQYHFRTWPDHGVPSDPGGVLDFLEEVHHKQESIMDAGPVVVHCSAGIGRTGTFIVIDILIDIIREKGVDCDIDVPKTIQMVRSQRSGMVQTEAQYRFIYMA
ASSAY_EXPLANATION: pNPP inhibition assay against SHP2
Format: biochemical
RUN_CONDITIONS: pNPP at Km of the PTP
pIC50: −log10 of the molar value.

{"COMPOUND": "O=C(O)C(=O)Nc1ccc(C#Cc2ccc3ccccc3c2)cc1 [Compound 4q]", "pIC50": "< 4.30"}
{"COMPOUND": "O=C(O)C(=O)Nc1ccc(/C=C\\c2ccc(C(F)(F)F)cc2)cc1 [Compound 10]", "pIC50": "< 4.52"}
{"COMPOUND": "N#Cc1ccc(C#Cc2ccc(NC(=O)C(=O)O)cc2)cc1 [Compound 4o]", "pIC50": "< 4.30"}
{"COMPOUND": "O=C(O)C(=O)Nc1cccc(C#Cc2ccccc2)c1 [Compound 5]", "pIC50": 4.16}
{"COMPOUND": "O=C(O)C(=O)Nc1ccc(CCc2ccccc2)cc1 [Compound 11]", "pIC50": "< 4.52"}
{"COMPOUND": "O=C(O)C(=O)Nc1ccc(CCc2ccc(C(F)(F)F)cc2)cc1 [Compound 12]", "pIC50": "< 4.52"}

Inquiry: Input CC(C)(C)OC(=O)NCC#Cc1ccc(NC(=O)C(=O)O)cc1 [Compound 3] , output reported pIC50.
Reply text: 4.24

Inquiry: Input C#Cc1ccc(NC(=O)C(=O)O)cc1 [Compound 2] , output reported pIC50.
Reply text: < 4.00

Inquiry: Input COC(=O)c1cc(C#Cc2ccc(NC(=O)C(=O)O)cc2)c(N(C)C)cc1O [Compound 4d] , output reported pIC50.
Reply text: < 4.30

Inquiry: Input O=C(O)C(=O)Nc1ccc(C#Cc2ccc(O)cc2)cc1 [Compound 4m] , output reported pIC50.
Reply text: < 4.30

Inquiry: Input COC(=O)c1cc(C#Cc2ccc(NC(=O)C(=O)O)cc2)ccc1O [Compound 4b] , output reported pIC50.
Reply text: 4.56

Inquiry: Input O=C(O)C(=O)Nc1ccc(C#Cc2ccc(O)c(Br)c2)cc1 [Compound 4n] , output reported pIC50.
Reply text: 4.35

Inquiry: Input O=C(O)C(=O)Nc1cnc2ccccc2c1 [Compound 8, 2-oxo-2-(quinolin-3-ylamino)acetic Acid] , output reported pIC50.
Reply text: < 4.00

Inquiry: Input O=C(O)C(=O)Nc1ccc(-c2ccccc2)cc1 [Compound 6] , output reported pIC50.
Reply text: 4.54

Inquiry: Input O=C(O)C(=O)Nc1ccc(C#Cc2ccc(C(F)(F)F)cc2F)cc1 [Compound 4v] , output reported pIC50.
Reply text: < 4.52

* * *

Known pIC50 of a selection of compounds
EXPERIMENTAL_TARGET: SHP1 (Homo sapiens (Human))
Sequence (P29350 244-515): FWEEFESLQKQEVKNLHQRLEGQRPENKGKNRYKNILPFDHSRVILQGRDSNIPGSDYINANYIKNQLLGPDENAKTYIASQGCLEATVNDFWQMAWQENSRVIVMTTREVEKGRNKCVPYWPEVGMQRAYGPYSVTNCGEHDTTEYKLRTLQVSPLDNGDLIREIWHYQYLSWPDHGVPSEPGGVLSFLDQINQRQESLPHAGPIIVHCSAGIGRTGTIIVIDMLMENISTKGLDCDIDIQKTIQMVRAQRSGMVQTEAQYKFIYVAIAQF
ASSAY_EXPLANATION: pNPP inhibition assay against SHP1
Format: biochemical
RUN_CONDITIONS: pNPP at Km of the PTP
pIC50: −log10 of the molar value.

{"COMPOUND": "COC(=O)c1ccc(C#Cc2ccc(NC(=O)C(=O)O)cc2)cc1O [Compound 4c]", "pIC50": "< 4.30"}
{"COMPOUND": "O=C(O)C(=O)Nc1ccc(C#Cc2ccc(O)c(Br)c2)cc1 [Compound 4n]", "pIC50": "< 4.30"}
{"COMPOUND": "O=C(O)C(=O)Nc1ccc(C#Cc2ccc(C(F)(F)F)cc2)cc1 [Compound 4k]", "pIC50": "< 4.30"}
{"COMPOUND": "N#Cc1cc(C(F)(F)F)ccc1C#Cc1ccc(NC(=O)C(=O)O)cc1 [Compound 4w]", "pIC50": 4.86}
{"COMPOUND": "O=C(O)C(=O)Nc1ccc(C#Cc2cc(C(F)(F)F)cc(C(F)(F)F)c2)cc1 [Compound 4p]", "pIC50": "< 4.30"}
{"COMPOUND": "O=C(O)C(=O)Nc1ccc(C#Cc2ccc(C(F)(F)F)cc2C(F)(F)F)cc1 [Compound 4x]", "pIC50": "< 4.52"}
{"COMPOUND": "CC(C)(C)c1ccc(C#Cc2ccc(NC(=O)C(=O)O)cc2)cc1 [Compound 4h]", "pIC50": "< 4.30"}
{"COMPOUND": "O=C(O)C(=O)Nc1ccc(C#Cc2ccccc2)cc1 [Compound 4]", "pIC50": "< 4.00"}
{"COMPOUND": "O=C(O)C(=O)Nc1ccc(C#Cc2ccc(C(F)(F)F)cc2Br)cc1 [Compound 4u]", "pIC50": 4.47}
{"COMPOUND": "O=C(O)C(=O)Nc1ccc(C#Cc2ccc3ccccc3c2)cc1 [Compound 4q]", "pIC50": "< 4.30"}

Inquiry: Input COC(=O)c1cc(C#Cc2ccc(NC(=O)C(=O)O)cc2)c(N(C)C)cc1O [Compound 4d] , output reported pIC50.
Reply text: < 4.30

Inquiry: Input CN(C)c1cc(O)c(C(=O)O)cc1C#Cc1ccc(NC(=O)C(=O)O)cc1 [Compound 4f] , output reported pIC50.
Reply text: 4.23
